assay: Local anaesthetic activity in rat sciatic nerve assessed as time required to decrease compound action potential to 50 % relative to Lidocaine; type: functional; design: scale not given: the % may be the effect or the level left
Tag: Condition met if measured Activity is not below 30%, Condition not met if it is.

{"compound": "Cc1ccc2snc(NC(=O)C(C)NC3CCCCC3)c2c1 (centres undefined)", "class": "Condition not met"}
{"compound": "CC(C(=O)Nc1nsc2ccccc12)N(C)C (centres undefined)", "class": "Condition not met"}
{"compound": "Cc1ccc2snc(NC(=O)C(C)N(C)C)c2c1 (centres undefined)", "class": "Condition not met"}
{"compound": "CCN(CC)CC(=O)Nc1c(C)cccc1C [LIDOCAINE]", "class": "Condition met"}
{"compound": "CCNCC(=O)Nc1nsc2ccccc12", "class": "Condition met"}
{"compound": "CNCC(=O)Nc1nsc2ccccc12", "class": "Condition met"}
{"compound": "CNC(C)C(=O)Nc1nsc2ccc(C)cc12 (centres undefined)", "class": "Condition met"}
{"compound": "O=C(CCN1CCOCC1)Nc1nsc2ccccc12", "class": "Condition met"}
{"compound": "CCCNCC(=O)Nc1nsc2ccccc12", "class": "Condition met"}
{"compound": "CCNCCC(=O)Nc1nsc2ccccc12", "class": "Condition not met"}
{"compound": "CCNC(C)C(=O)Nc1nsc2ccc(C)cc12 (centres undefined)", "class": "Condition met"}
{"compound": "CC(C(=O)Nc1nsc2ccccc12)N1CCOCC1 (centres undefined)", "class": "Condition not met"}
{"compound": "CC1CCN(CC(=O)Nc2nsc3ccccc23)CC1", "class": "Condition not met"}

----------
experiment: Local anaesthetic activity in rat sciatic nerve assessed as vitality time at 1.5%; type: functional
Below, each of the molecules is paired with its reported VT50 value.

{"record.smiles": "CCNCC(=O)Nc1nsc2ccccc12", "VT50": "658 min"}
{"record.smiles": "O=C(CN1CCOCC1)Nc1nsc2ccccc12", "VT50": "666.7 min"}
{"record.smiles": "O=C(CN1CCCC1)Nc1nsc2ccccc12", "VT50": "705.5 min"}
{"record.smiles": "O=C(CN1CCCCC1)Nc1nsc2ccccc12", "VT50": "555.8 min"}
{"record.smiles": "CCN(CC)CC(=O)Nc1nsc2ccccc12", "VT50": "600 min"}

----------
Below, each of the compounds is paired with its reported Activity value.
assay: Local anaesthetic activity in rat sciatic nerve assessed as time required to decrease compound action potential to 50 % relative to Lidocaine; format: functional; parameters: scale not given: the % may be the effect or the level left

{"compound": "Cc1ccc2snc(NC(=O)C(C)N3CCCCC3)c2c1 (stereo not given)", "units.symbol": "%", "Activity": 28.5}
{"compound": "O=C(CN1CCOCC1)Nc1nsc2ccccc12", "units.symbol": "%", "Activity": 57.1}
{"compound": "CCCNC(C)C(=O)Nc1nsc2ccc(C)cc12 (stereo not given)", "units.symbol": "%", "Activity": 23.6}
{"compound": "CC(C(=O)Nc1nsc2ccccc12)N1CCCC1 (stereo not given)", "units.symbol": "%", "Activity": 40.8}
{"compound": "CC(C(=O)Nc1nsc2ccccc12)N1CCCCC1 (stereo not given)", "units.symbol": "%", "Activity": 21.7}

----------
assay: Local anaesthetic activity in rat sciatic nerve assessed as time required to decrease compound action potential to 100 % at 1.5%; type: functional
The label 1 is reserved for IT100 strictly under 30 min; -1 covers values equal to or above it.

{"record.smiles": "O=C(CN1CCCC1)Nc1nsc2ccccc12", "class": 1}
{"record.smiles": "CCN(CC)CC(=O)Nc1nsc2ccccc12", "class": -1}
{"record.smiles": "O=C(CN1CCCCC1)Nc1nsc2ccccc12", "class": 1}
{"record.smiles": "O=C(CN1CCOCC1)Nc1nsc2ccccc12", "class": 1}
{"record.smiles": "CCNCC(=O)Nc1nsc2ccccc12", "class": -1}

Ref: ChEMBL document CHEMBL1153863
